Reference source for all entries: patent US20220091128A1

# tgt: HSA (Homo sapiens)
# procedureSummary: Drug screening: HSA binding constants from DSC thermograms
# protocolConditions: Measured KD From TM, binding to HSA; single value or value marked 1)
Output Yes for records whose Kd is lower than 3 µM, No for records at or above 3 µM.

[
  {
    "compound": "C=CC1=C(C)/C(=C/c2[nH]c(Cc3[nH]c(/C=C4\\NC(=O)C(C)=C4C=C)c(C)c3CCC(=O)O)c(CCC(=O)O)c2C)NC1=O [Bilirubin (BIL), Bilirubin]",
    "groupLabel": "Yes"
  },
  {
    "compound": "CC(NC(C)(C)C)C(=O)c1cccc(Cl)c1 (stereo not drawn) [Bupropion (BPR), Bupropion]",
    "groupLabel": "Yes"
  },
  {
    "compound": "O=C1OC2(c3ccc(O)cc3Oc3cc(O)ccc32)c2ccccc21 [Fluorescein (FSC), Fluorescein]",
    "groupLabel": "No"
  }
]

Record C[C@H](CS)C(=O)N1CCC[C@H]1C(=O)O [Captopril (CAP), Captopril] : is its Kd strictly below 3 µM?
No

What do you get for CCCCNc1ccc(C(=O)OCCN(C)C)cc1 [Tet, Tetracaine] ?
No

----------
# tgt: HSA (Homo sapiens)
# procedureSummary: Drug screening: HSA binding constants from DSC thermograms
# protocolConditions: read-out: Average Measured KD; binding to HSA; single value or value marked 1)
Readings of pKd for the listed compounds
Bear in mind: pKd is minus log10 of a mol/L concentration; give just that figure.

Look over these answered cases.
[
  {
    "compound": "CNC[C@H](O)[C@@H](O)[C@H](O)[C@H](O)CO.CNC[C@H](O)[C@@H](O)[C@H](O)[C@H](O)CO.O=C([O-])CN(CCN(CC(=O)[O-])CC(=O)O)CCN(CC(=O)O)C(COCc1ccccc1)C(=O)[O-].[Gd+3] (stereo not drawn)",
    "number": 2.87
  },
  {
    "compound": "Cc1c(C2(c3cc(Br)c(O)c(Br)c3C)OS(=O)(=O)c3ccccc32)cc(Br)c(O)c1Br",
    "number": 5.48
  }
]

# next compound below
What measured pKd goes with CCCCCc1cc(O)c2c(c1)OC(C)(C)[C@@H]1CCC(C)=C[C@@H]21 [Δ9-tetrahydrocannabinol (THC), Δ9-tetrahydrocannabinol] ?
7.46

----------
Readings of pKd for the listed compounds
# tgt: HSA (Homo sapiens, UniProt P02768)
# Sequence (P02768 25-609): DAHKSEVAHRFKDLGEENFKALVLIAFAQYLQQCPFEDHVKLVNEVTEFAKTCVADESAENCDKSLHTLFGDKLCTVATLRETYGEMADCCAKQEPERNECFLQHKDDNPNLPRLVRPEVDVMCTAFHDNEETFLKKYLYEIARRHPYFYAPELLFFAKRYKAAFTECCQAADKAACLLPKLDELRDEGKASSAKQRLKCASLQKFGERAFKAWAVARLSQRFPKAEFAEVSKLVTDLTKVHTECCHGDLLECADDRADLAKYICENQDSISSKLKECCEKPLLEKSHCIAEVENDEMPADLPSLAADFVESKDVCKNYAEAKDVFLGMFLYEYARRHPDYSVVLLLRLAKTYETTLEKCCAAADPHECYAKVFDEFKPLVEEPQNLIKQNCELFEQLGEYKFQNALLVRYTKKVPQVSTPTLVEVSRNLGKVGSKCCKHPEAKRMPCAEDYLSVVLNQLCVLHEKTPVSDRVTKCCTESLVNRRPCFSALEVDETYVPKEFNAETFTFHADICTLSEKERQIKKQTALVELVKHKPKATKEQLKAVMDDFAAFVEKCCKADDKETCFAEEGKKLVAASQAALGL
# procedureSummary: Drug screening: HSA binding constants from DSC thermograms
# protocolConditions: read-out: Measured KD from ΔG^037; binding to HSA; single value or value marked 1)
Bear in mind: pKd is minus log10 of a mol/L concentration; give just that figure.

[
  {
    "compound": "CCCCCc1cc(O)c2c(c1)OC(C)(C)[C@@H]1CCC(C)=C[C@@H]21 [Δ9-tetrahydrocannabinol (THC), Δ9-tetrahydrocannabinol]",
    "pKd": 7.32
  },
  {
    "compound": "Cc1c(C2(c3cc(Br)c(O)c(Br)c3C)OS(=O)(=O)c3ccccc32)cc(Br)c(O)c1Br",
    "pKd": 5.79
  }
]

# next compound below
Please provide the recorded pKd for CNC[C@H](O)[C@@H](O)[C@H](O)[C@H](O)CO.CNC[C@H](O)[C@@H](O)[C@H](O)[C@H](O)CO.O=C([O-])CN(CCN(CC(=O)[O-])CC(=O)O)CCN(CC(=O)O)C(COCc1ccccc1)C(=O)[O-].[Gd+3] (stereo not drawn) , tested on HSA (Homo sapiens, UniProt P02768).
2.89

----------
# tgt: HSA (Homo sapiens)
# procedureSummary: Drug screening: HSA binding constants from DSC thermograms
# protocolConditions: Measured KD From TM, binding to HSA; second value marked 2)
assayReadout: Kd (µM)
State just the number; it will be interpreted in µM.

What measured Kd goes with CC(NC(C)(C)C)C(=O)c1cccc(Cl)c1 (stereo not shown) ?
28.8
